system: Ruminococcus gnavus DSM 108212; test: growth (OD595) fold change vs plate DMSO controls (fold change (ratio)); higher = more growth; conditions: incubation time: 27 h, anaerobic, 37 °C
Where a name gives a salt, the structure may show the parent alone.
Exercise: state measured growth for each of the molecules provided.
// no unit string in output, number only

[ask] Identify measured growth associated with CC(=O)O[C@]1(C(C)=O)CC[C@H]2[C@@H]3C=C(Cl)C4=CC(=O)[C@@H]5C[C@@H]5[C@]4(C)[C@H]3CC[C@@]21C [Cyproterone acetate] (20 µM)
[reply] 0.639

[ask] Identify measured growth associated with Cc1ncc(CO)c(CO)c1O [Pyridoxine hydrochloride] (20 µM)
[reply] 1.01

[ask] Identify measured growth associated with CO[C@@H]1[C@@H](O[C@@H]2O[C@H](C)[C@@H](O[C@H]3C[C@@](C)(O)[C@@H](O)[C@H](C)O3)[C@H](N(C)C)[C@H]2O)[C@@H](CC=O)C[C@@H](C)[C@@H](O[C@H]2CC[C@H](N(C)C)[C@@H](C)O2)/C=C/C=C/C[C@@H](C)OC(=O)C[C@H]1OC(C)=O [Acetyl spiramycin] (20 µM)
[reply] 0.154

[ask] Identify measured growth associated with Cc1ccccc1C(=O)Nc1ccc(C(=O)N2CCCC(O)c3cc(Cl)ccc32)c(C)c1 (centres undefined) [Tolvaptan] (20 µM)
[reply] 1.06

====

system: Clostridium sporogenes DSM 1664; test: fold change of Tryptamine concentration vs plate DMSO controls (fold change (ratio)); higher = more amine produced, active = hit call of the paper (significant change in both replicates, either direction); conditions: incubation time: 27 h, anaerobic, 37 °C;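 for the amine columns active = adjusted P below 0.05 in both replicates with a change the same way and a mean fold change under 0.8 or over 1.25; inactive = the rest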
Structures can show the parent of a compound that is named as a salt.
// allowed return values: t (active), f (inactive)

[ask] // param item: CC/C(=C(\c1ccccc1)c1ccc(OCCN(C)C)cc1)c1ccccc1 [Tamoxifen citrate] (20 µM) ; yields the recorded call
[reply] f

[ask] // param item: C/C(=C(\CCOP(=O)(O)O)SC(=O)c1ccccc1)N(C=O)Cc1cnc(C)nc1N [Benfotiamine] (20 µM) ; yields the recorded call
[reply] f

[ask] // param item: CCN(CC)C(=S)SSC(=S)N(CC)CC [Disulfiram] (20 µM) ; yields the recorded call
[reply] f

[ask] // param item: C=C(CC)C(=O)c1ccc(OCC(=O)O)c(Cl)c1Cl [Ethacrynic acid] (20 µM) ; yields the recorded call
[reply] f

[ask] // param item: CCC(=O)c1c(O)cc(O)cc1O [Flopropione] (20 µM) ; yields the recorded call
[reply] f

[ask] // param item: CC(C)(C)C(=O)OCOC(=O)[C@@H]1N2C(=O)[C@@H](/N=C/N3CCCCCC3)[C@H]2SC1(C)C [Pivmecillinam hydrochloride] (20 µM) ; yields the recorded call
[reply] f

[ask] // param item: CN1CCN(c2c(F)cc3c(=O)c(C(=O)O)cn4c3c2OCN4C)CC1 [Marbofloxacin] (20 µM) ; yields the recorded call
[reply] t

[ask] // param item: Nc1nc(NC2CC2)c2ncn([C@H]3C=C[C@@H](CO)C3)c2n1 [Abacavir sulfate] (20 µM) ; yields the recorded call
[reply] f

[ask] // param item: Cc1cc(C(C)(C)C)c(O)c(C)c1CC1=NCCN1 [Oxymetazoline hydrochloride] (20 µM) ; yields the recorded call
[reply] f

[ask] // param item: O=C(O)CCCC[C@@H]1SC[C@@H]2NC(=O)N[C@@H]21 [Biotin] (20 µM) ; yields the recorded call
[reply] f

[ask] // param item: CN(C)C(=O)COC(=O)Cc1ccc(OC(=O)c2ccc(NC(=N)N)cc2)cc1 [Camostat mesylate] (20 µM) ; yields the recorded call
[reply] f

[ask] // param item: CCOc1cc(CC(=O)N[C@@H](CC(C)C)c2ccccc2N2CCCCC2)ccc1C(=O)O [Repaglinide] (20 µM) ; yields the recorded call
[reply] f

[ask] // param item: O=S(=O)(c1cccc2cnccc12)N1CCCNCC1 [Fasudil Hydrochloride] (20 µM) ; yields the recorded call
[reply] f

Data origin, for the record: the supplement of paper PMC12494721
